B1: CPEB3 Ribozyme (parent)
chain: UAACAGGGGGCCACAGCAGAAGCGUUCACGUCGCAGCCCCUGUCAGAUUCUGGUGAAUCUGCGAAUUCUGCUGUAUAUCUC

variants of: B1; experiment: self-cleavage, relative activity (ratio to wild type); higher = more cleavage; in vitro, sequencing
Metric Name: self-cleavage
Returns: the value as a bare number; no unit string appended.

Q: Recorded self-cleavage for G22C A56U , please?
Result: 0.14

Q: Recorded self-cleavage for G7U U25A , please?
Result: 0.15

Q: Recorded self-cleavage for G7U C29U , please?
Result: 0.09

Q: Recorded self-cleavage for A35U U43A , please?
Result: 0.71

Q: Recorded self-cleavage for U60A C79A , please?
Result: 0.88
